Measurement record for parent strain (SAWy518); quantity recorded: Offscreen_24hr.
# print the numeric value only

CC[C@H](c1ccc(O)cc1)[C@@H](CC)c1ccc(O)cc1 ... 0.9011
Clc1ccccc1C(c1ccccc1)(c1ccccc1)n1ccnc1 ... 0.1029
O=c1c(O)c(-c2ccc(O)c(O)c2)oc2cc(O)cc(O)c12 [Quercetin (Sophoretin)] ... 0.8834

## Input # Offscreen_24hr lookup, item CC[n+]1c(/C=C/C=C2/N(C)c3ccccc3C2(C)C)sc2ccccc21.[I-] [AC-93253 iodide]
## Output 0.5533

## Input Field request: Offscreen_24hr | item: "COC1=C(CC=C(C)C)C(=O)c2ccccc2C1=O"
## Output 0.9161

## Input Recorded Offscreen_24hr for "Cc1ccc(C(=O)Nc2ccc(CN3CCN(C)CC3)c(C(F)(F)F)c2)cc1C#Cc1cnc2[nH]ncc2c1" , please?
## Output 0.9473

## Input For "O=C(O)Cc1cc(I)c(Oc2cc(I)c(O)c(I)c2)c(I)c1" , what is its reported Offscreen_24hr?
## Output 0.8874

## Input What value of Offscreen_24hr has been recorded for this entry: "COc1ccc(-c2coc3cc(O)cc(O)c3c2=O)cc1"
## Output 0.8858

## Input Quick one: Offscreen_24hr for "C[C@@H]1CC[C@H]2[C@@H](C)C(=O)O[C@@H]3O[C@@]4(C)CC[C@@H]1[C@]32OO4" ?
## Output 0.7016

## Input Field request: Offscreen_24hr | item: CCC(C)n1ncn(-c2ccc(N3CCN(c4ccc(OC[C@H]5CO[C@](Cn6cncn6)(c6ccc(Cl)cc6Cl)O5)cc4)CC3)cc2)c1=O.Cl.Cl (some centres unmarked) [ITRACONAZOLE HYDROCHLORIDE]
## Output 0.8859

## Input Which measured Offscreen_24hr value corresponds to CC(=O)[C@]1(O)Cc2c(O)c3c(c(O)c2[C@@H](O[C@H]2C[C@H](N)[C@H](O)[C@H](C)O2)C1)C(=O)c1ccccc1C3=O [Idarubicin] ?
## Output 0.1842

## Input // Offscreen_24hr lookup, key: Cc1c(N)nc([C@H](CC(N)=O)NC[C@@H](N)C(N)=O)nc1C(=O)N[C@H](C(=O)N[C@@H](C)[C@H](O)[C@@H](C)C(=O)N[C@@H](C(=O)NCCc1nc(-c2nc(C(=O)NCCC[S+](C)C)cs2)cs1)[C@@H](C)O)C(O[C@H]1O[C@H](CO)[C@H](O)[C@@H](O)[C@H]1O[C@H]1O[C@H](CO)[C@@H](O)[C@H](OC(N)=O)[C@@H]1O)c1c[nH]cn1.O=S(=O)([O-])O (some centres unmarked) [Bleomycin sulfate]
## Output 0.4579

## Input State the recorded Offscreen_24hr for this entry: "CSc1nc2cc(Cl)c(Oc3cccc(Cl)c3Cl)cc2[nH]1"
## Output 0.5896

## Input Please report the recorded Offscreen_24hr for CC(C(=O)O)c1ccc2c(c1)[nH]c1ccc(Cl)cc12 (centres unmarked) [Carprofen] .
## Output 0.8523

* * *

# Tested on: parent strain (SAWy518)
Structures can show the parent of a compound that is named as a salt.
endpoint_label: Offscreen_42hr

In the examples that follow, each entry is paired with its recorded Offscreen_42hr.
COc1ccc(-c2coc3cc(OC(C)=O)cc(OC(C)=O)c3c2=O)cc1 [BIOCHANIN A DIACETATE] ... 0.9447
CC[n+]1c(/C=C/C=C2/N(C)c3ccccc3C2(C)C)sc2ccccc21.[I-] [AC-93253 iodide] ... 0.821
[H]/N=C(\N/C(=N/[H])NCCCCCCNC(=N)NC(=N)Nc1ccc(Cl)cc1)Nc1ccc(Cl)cc1 [Chlorhexidine hydrochloride] ... 0.9568

## Input Value lookup for Offscreen_42hr; key = "Clc1ccccc1C(c1ccccc1)(c1ccccc1)n1ccnc1"
## Output 0.8087

## Input Recorded Offscreen_42hr of CCCCCCCCCCCCC[N+](C)(C)Cc1ccccc1.[Cl-] [BENZALKONIUM CHLORIDE] , please.
## Output 0.5903

## Input For "COc1cc(C(=O)NS(=O)(=O)c2ccccc2C)ccc1Cc1cn(C)c2ccc(NC(=O)OC3CCCC3)cc12" , what is its reported Offscreen_42hr?
## Output 0.9793

## Input I would be grateful if you could share the reported Offscreen_42hr for "CC/C(=C(/CC)c1ccc(O)cc1)c1ccc(O)cc1" .
## Output 0.9776

## Input Need Offscreen_42hr of "O=C1C(Cl)=C(Cl)C(=O)C(Cl)=C1Cl" , thanks.
## Output 0.9247

* * *

Heads up, these compounds all have Offscreen_24hr values measured for parent strain (SAWy518).
Enter the number alone.

CC[C@@H](C(=O)[C@@H](C)[C@@H](O)[C@H](C)[C@@H]1O[C@@H]([C@@H](CC)C(=O)O)CC[C@@H]1C)[C@H]1O[C@]2(C=C[C@@H](O)[C@]3(CC[C@@](C)([C@H]4CC[C@](O)(CC)[C@H](C)O4)O3)O2)[C@H](C)C[C@@H]1C [Salinomycin] ... 0.892
O=C1Nc2ccc(Cl)cc2[C@@](C#CC2CC2)(C(F)(F)F)O1 [Efavirenz] ... 0.8701
COc1ccc([C@@H](C)C(=O)c2ccc(O)cc2O)cc1 [Angolesin] ... 0.8843
N#Cc1c(Cl)c(Cl)c(Cl)c(C#N)c1Cl [CHLOROTHALONIL] ... 0.8372
N.N.N.N.N.N.N.N.N.N.N.N.N.N.[Cl-].[Cl-].[Cl-].[Cl-].[Cl-].[Cl-].[O-2].[O-2].[Ru+3].[Ru+3].[Ru+4] [Ruthenium red] ... 0.8198

## Input Value lookup for Offscreen_24hr; key = CCC(C)n1ncn(-c2ccc(N3CCN(c4ccc(OCC5COC(Cn6cncn6)(c6ccc(Cl)cc6Cl)O5)cc4)CC3)cc2)c1=O (stereo not drawn) [Itraconazole]
## Output 0.8546

## Input Can you share its Offscreen_24hr? I mean this compound: NCCS(=O)(=O)O [Taurine]
## Output 0.9173

## Input Name the reported Offscreen_24hr value associated with the compound COc1c(C)c2c(c(O)c1C/C=C(\C)CCC(=O)O)C(=O)OC2 [MYCOPHENOLIC ACID]
## Output 0.8395

## Input Could you share which Offscreen_24hr value was measured for Cc1ccc(S(=O)(=O)/C=C/C#N)cc1 [BAY 11-7082 (BAY 11-7821)] ?
## Output 0.3413

## Input Would you kindly share the measured Offscreen_24hr for CC(C)(C)CC(C)(C)c1ccc(OCCOCC[N+](C)(C)Cc2ccccc2)cc1 [Benzethonium] ?
## Output 0.892

## Input Look at this compound and give its reported Offscreen_24hr. N.S=C(S)N1CCCC1 [Ammonium pyrrolidinedithiocarbamate]
## Output 0.8623

## Input Any idea what Offscreen_24hr was measured for O=c1c(O)c(-c2ccc(O)c(O)c2)oc2cc(O)cc(O)c12 [Quercetin dihydrate] ?
## Output 0.8789

## Input Need Offscreen_24hr, item N#CC(c1ccc(Cl)cc1)c1c(Cl)cc(-n2ncc(=O)[nH]c2=O)cc1Cl (stereo not drawn) [Diclazuril]
## Output 0.8733

## Input Name the recorded Offscreen_24hr for Oc1ccc(Nc2nc(-c3ccc(Cl)cc3)cs2)cc1 [SKI II] .
## Output 0.6287

## Input Recorded Offscreen_24hr of Oc1ccc(Cl)cc1Cc1cc(Cl)ccc1O [DICHLOROPHEN] , please.
## Output 0.7921

* * *

Structures can show the parent of a compound that is named as a salt.
The reader will find Offscreen_18hr measurements below, all made with parent strain (SAWy518).
I'd appreciate a reply containing only the number, no unit.

Recorded Offscreen_18hr, per entry:
O=[N+]([O-])/C=C/c1ccc2c(c1)OCO2 [MNS] ... 0.2427
C/C=C(/C(=C/C)c1ccc(O)cc1)c1ccc(O)cc1 [Dienestrol] ... 0.801
Cc1ccc(S(=O)(=O)N[C@@H](Cc2ccccc2)C(=O)CCl)cc1 [TCPK] ... 0.7347

## Input Please tell me: Offscreen_18hr of O=C1NC(=O)/C(=C\c2cccc(C(F)(F)F)c2)S1 [TCS PIM-1 4a] , system parent strain (SAWy518)?
## Output 0.5379

## Input Value wanted: Offscreen_18hr (parent strain (SAWy518)) of entry [H]/N=C(\N/C(=N/[H])NCCCCCCNC(=N)NC(=N)Nc1ccc(Cl)cc1)Nc1ccc(Cl)cc1 [Chlorhexidine hydrochloride]
## Output 0.5517

## Input API: value(readout=Offscreen_18hr, system=parent strain (SAWy518)) for record CCN(CC)C(=S)SSC(=S)N(CC)CC [Disulfiram]
## Output 0.0526

## Input Request - read-out Offscreen_18hr | tested on parent strain (SAWy518) | compound COc1ncc(-c2ccc3nccc(-c4ccnnc4)c3c2)cc1NS(=O)(=O)c1ccc(F)cc1F [GSK2126458 (GSK458)]
## Output 0.433
